test system: SN12C renal; test: NCI tumour cell line growth inhibition, 48 h
Here, each record is paired with measured TGI data.

For orientation, consider the following solved cases.
O=C1CC(Cc2n[nH]c3c2CCCC3)CC(=O)N1
> 100 µM
Nc1n[nH]c2c(C(=O)Nc3ccc(Cl)cc3)c(N)n(N)c(=O)c12
> 100 µM
C[C@]12CC(C=O)C(=O)C(O)=C1CC[C@@H]1C2CC[C@@]2(C)C1CC[C@]2(C)O (some centres not stated)
42.4 µM
Clc1cc(OCc2nn3c(Cc4ccccc4)nnc3s2)c(Cl)cc1OCc1nn2c(Cc3ccccc3)nnc2s1
> 100 µM

## Task What value of measured TGI is listed for Cc1c(Cl)cccc1NC(=O)c1sc2nc3c(cc2c1N)C(=O)CCC3 ?
## Result > 100 µM

## Task What value of measured TGI is listed for CC(C)(C)C1=CC(=C2C=Cc3cc(O)ccc3O2)C=C(C(C)(C)C)C1=O ?
## Result 3.02 µM

## Task What value of measured TGI is listed for CCOC(=O)c1csc(C(CSCc2ccc(OC)cc2)N2C(=O)c3ccccc3C2=O)n1 (configuration not stated) ?
## Result > 100 µM

## Task What value of measured TGI is listed for CC(=O)OC1CC(OC2C(O)CC(OC3C(O)CC(OC4CCC5(C)C(CCC6C5CCC5(C)C(C7=CC(=O)OC7)CCC65O)C4)OC3C)OC2C)OC(C)C1OC1OC(CO)C(O)C(O)C1O (configuration not stated) ?
## Result 0.286 µM

## Task What value of measured TGI is listed for C/C(O)=C(\C=NC(=S)c1cccnc1)C(=O)Nc1ccccc1C ?
## Result > 100 µM

## Task What value of measured TGI is listed for O=C1C(Cl)=C(Cl)C(=O)N1c1cccc(C(F)(F)F)c1 ?
## Result > 100 µM

## Task What value of measured TGI is listed for Cc1c(NC(=O)Nc2c(Cl)cccc2Cl)c(=O)n(-c2ccccc2)n1C ?
## Result > 100 µM

## Task What value of measured TGI is listed for CO/C=C1\OC(=O)C=C1OC ?
## Result > 100 µM

====

test system: SF-539 CNS; test: NCI tumour cell line growth inhibition, 48 h
Here, each record is paired with measured TGI data.

For orientation, consider the following solved cases.
CN(C)C(=S)/N=c1\ssc(=S)n1Cc1ccco1
7.66 µM
CCCCCCCCCC(=O)NC(CCC(=O)N(CCNC(=O)c1nc(-c2ccccc2)oc1-c1ccccc1)Cc1ccccc1)C(=O)O (stereo not given)
41.7 µM
O=C1NC2C3CC(OCc4ccccc4)(OCc4ccccc4)C2OC3O1 (stereo not given)
> 50 µM
COc1ccc(/C=N/N=C(\N)NO)cc1F
60.1 µM
C[C@@]1(C(=O)O)CCC[C@]2(C)C1CC[C@]13C[C@@](O)(CO)[C@](O)(CC[C@]12O)C3 (stereo not given in full)
> 100 µM
O=C1N/C(=N\N=C\c2ccccc2)C2(CCCCC2)O1
> 100 µM

## Task What value of measured TGI is listed for CO[C@@H]1C[C@H]2[C@@H]3CC[C@H]([C@H](C)COC(C)=O)[C@@]3(C)CC[C@@H]2[C@@]2(C)CC[C@H]3C[C@]312 ?
## Result > 100 µM

## Task What value of measured TGI is listed for CN(/N=C/C=N/N(C)C1=NCCCN1)C1=NCCCN1 ?
## Result > 100 µM

## Task What value of measured TGI is listed for Nn1c(-c2cccc(Cl)c2)nc2ccccc2c1=O ?
## Result > 100 µM

## Task What value of measured TGI is listed for NC(=O)C(=O)C1C(=O)N(c2ccccc2)N=C1N (stereo not given) ?
## Result > 100 µM

## Task What value of measured TGI is listed for O=[N+]([O-])c1ccc(C2SCc3nc4ccccc4n32)cc1 (stereo not given) ?
## Result > 100 µM
